Reference for the values: patent US10836725B2

# Tested on: ATF4 luciferase reporter
# MEASUREMENT_DESCRIPTION: ATF4-Luc assay in HEK293T cells carrying the ATF4 luciferase reporter (in vitro model of VWMD)
# Type: cell-based, human
# TEST_CONDITIONS: Homo sapiens, HEK-293T, 1 μg/mL tunicamycin, 7 hours, luminescence (One Glo)
PROPERTY: EC50

In the examples that follow, each entry is paired with its recorded EC50.
MOLECULE	EC50
Cn1ccc(CNC(=O)C23CC(NC(=O)COc4ccc(Cl)c(F)c4)(C2)C3)n1	> 2 µM
CCCCc1ccc(CNC(=O)C23CC(NC(=O)COc4ccc(Cl)c(F)c4)(C2)C3)cc1	> 2 µM
Cc1cccc(CNC(=O)C23CCC(NC(=O)COc4ccc(Cl)c(F)c4)(CC2)CC3O)c1 (stereo not shown)	0.5 to 1 µM

Please fill in: EC50 reported for O=C(COc1ccc(Cl)c(F)c1)NC12CC(C(=O)NCCCc3ccc(F)cc3)(C1)C2 = < 0.25 µM

// sample O=C(COc1ccc(Cl)c(F)c1)NC12CC(C(=O)NCc3cccc(Cl)c3)(C1)C2 , its EC50 was > 2 µM

Documented EC50 of O=C(COc1ccc(Cl)c(F)c1)NC12CCC(C(=O)NCc3ccc(F)cc3)(CC1)C(O)C2 (stereo not shown) : < 0.25 µM

Given item Cc1cc(CNC(=O)C23CC(NC(=O)COc4ccc(Cl)c(Cl)c4)(C2)C3)n(C)n1 , the value recorded as its EC50 is > 2 µM

Value of measured EC50 for the entry O=C(COc1ccc(Cl)c(F)c1)NC12CC(C(=O)NCc3cnoc3)(C1)C2 : > 2 µM

Field EC50 (entry CC(C)(C)c1ccc(CNC(=O)C23CCC(NC(=O)COc4ccc(Cl)c(F)c4)(CC2)CC3O)cc1 (stereo not shown) ) reads 0.5 to 1 µM

Reported EC50 for O=C(COc1ccc(Cl)c(F)c1)NC12CC(C(=O)NCc3ccc(F)c(C(F)(F)F)c3)(C1)C2 was > 2 µM
